Tested on: SNB-75
Assay: NCI tumour cell line growth inhibition, 48 h
The source made the active and inactive calls. No stated cut-off is given here; in the data, active = GI50 up to about 1.1 µM and inactive = higher.
Outcomes: active, inactive

{"compound": "COc1cc2c(c(OC)c1O)-c1ccc(SC)c(=O)cc1C(NC(C)=O)CC2 (stereo not given)", "discrete.label": "active"}
{"compound": "OCCCNc1ccnc2cc(Cl)ccc12", "discrete.label": "inactive"}
{"compound": "O=C(Nc1ccccc1)c1cc2ccccc2c(/N=N\\c2cccc([N+](=O)[O-])c2)c1O", "discrete.label": "inactive"}
{"compound": "Cc1ccc(/N=N/NCCCCN)cc1", "discrete.label": "inactive"}
{"compound": "CCOc1ccc2nc(NC(=O)C(=O)C3C(=O)C(CC4C(=O)c5ccccc5C4=O)C(=O)CC3(C)C)sc2c1 (stereo not given)", "discrete.label": "inactive"}
{"compound": "COC(=O)/C=C/c1cc(O)c2c(c1)[C@H](C(=O)OC)[C@@H](c1ccc(O)c(O)c1)O2", "discrete.label": "active"}
{"compound": "CCCCCCCCCCCCCCCCCCNC(=O)C(N)Cc1ccc(OCc2ccccc2)cn1 (stereo not given)", "discrete.label": "inactive"}
{"compound": "COC(=O)c1c(C)oc2ccc(OC(C)=O)cc12", "discrete.label": "inactive"}
{"compound": "COc1ccc(-c2nnc(CCCCCCCCc3nnc(-c4ccc(OC)cc4)n3N)n2N)cc1", "discrete.label": "inactive"}
{"compound": "Cc1ccc2nc3ccccc3c(C3C4C(=O)N(c5ccc(Br)cc5Cl)C(=O)C4ON3C(C(N)=O)c3ccccc3)c2c1 (stereo not given)", "discrete.label": "inactive"}
